Where do the numbers come from? From patent US20070128217A1.

In this section, each of the sequences is paired with its reported Binding of serum London to linear peptides of protein X1 of SARS-CoV Urbani.
system: antibodies in sera from SARS patients (sera 1a, 1b, 2, 6, 37, 62, London, SARS-yellow, SARS-green); format: binding, human
Give a plain numeric answer without units written out.

Known results for sequences:
WLVIGVAFLAVFQSA; 0.3
NATFFIFNKLVKDPP; 0.2
GVAFLAVFQSATKII; 0.2

Query :: Could you tell me which Binding of serum London to linear peptides of protein X1 of SARS-CoV Urbani is on file for "YYQLESTQITTDTGI" ?
Result :: 0.2

Query :: So what does the record say about Binding of serum London to linear peptides of protein X1 of SARS-CoV Urbani for "NSVTDTIVVTEGDGI" ?
Result :: 0.2

Query :: // lookup Binding of serum London to linear peptides of protein X1 of SARS-CoV Urbani for "TEGDGISTPKLKEDY"
Result :: 0.2

Query :: I have this sequence here, "PYNSVTDTIVVTEGD" , and I need its recorded Binding of serum London to linear peptides of protein X1 of SARS-CoV Urbani.
Result :: 0.2

Query :: Which measured Binding of serum London to linear peptides of protein X1 of SARS-CoV Urbani value corresponds to "DLFMRFFTLGSITAQ" ?
Result :: 0.2

Query :: Given the entry "LLVAAGMEAQFLYLY" , report its measured Binding of serum London to linear peptides of protein X1 of SARS-CoV Urbani.
Result :: 0.3

Query :: Would you kindly share the measured Binding of serum London to linear peptides of protein X1 of SARS-CoV Urbani for "TEVYYQLESTQITTD" ?
Result :: 0.4
